Cited source: PubChem BioAssay AID1963985

# Tested on: 252836-082-R-J2-PDC tumor spheroids, viability;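 also: spheroids exposed to agents for seven days before readout; percent of vehicle DMSO control viability so 100% = untreated growth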
# assay-explanation: Anticancer human tumor 252836-082-R-J2-PDC patient-derived head and neck squamous cell carcinoma cell line growth inhibition [PI3K]
# measurement-context: second compound 3.16 µM; first compound 0.316 µM; active compounds read low; spheroids with HUVEC and MSC
experimental-readout: viability, T/C (%)
Quick reminder: number only, in %, skip the unit.

Worked cases, answers included:
molecule="C#Cc1c(F)ccc2cc(O)cc(-c3ncc4c(N5CC6CCC(C5)N6)nc(OCC56CCCN5CC(F)C6)nc4c3F)c12 (stereo unspecified) + Cc1nc(NC(=O)N2CCCC2C(N)=O)sc1-c1ccnc(C(C)(C)C(F)(F)F)c1" experimental_readout="viability, T/C" result=44.5
molecule="CCCS(=O)(=O)Nc1ccc(F)c(C(=O)c2c[nH]c3ncc(-c4ccc(Cl)cc4)cc23)c1F + Cc1nc(NC(=O)N2CCCC2C(N)=O)sc1-c1ccnc(C(C)(C)C(F)(F)F)c1" experimental_readout="viability, T/C" result=50.9

Short answer for C=CC(=O)N1CCN(c2nc(=O)n(-c3c(C)ccnc3C(C)C)c3nc(-c4c(O)cccc4F)c(F)cc23)C(C)C1 (stereo unspecified) + CC(Nc1ncnc2nc[nH]c12)c1cc2cccc(Cl)c2c(=O)n1-c1ccccc1 : viability, T/C was 74.7

Short answer for CC1(C)CCC(CN2CCN(c3ccc(C(=O)NS(=O)(=O)c4ccc(NCC5CCOCC5)c([N+](=O)[O-])c4)c(Oc4cnc5[nH]ccc5c4)c3)CC2)=C(c2ccc(Cl)cc2)C1 + Cc1nc(NC(=O)N2CCCC2C(N)=O)sc1-c1ccnc(C(C)(C)C(F)(F)F)c1 : viability, T/C was 46.3

Short answer for CC(Cn1ccc(-c2ccc(C#N)c(Cl)c2)n1)NC(=O)c1cc(C(C)O)[nH]n1 (stereo unspecified) + Cc1nc(NC(=O)N2CCCC2C(N)=O)sc1-c1ccnc(C(C)(C)C(F)(F)F)c1 : viability, T/C was 44.5

Short answer for C#Cc1c(F)ccc2cc(O)cc(-c3ncc4c(N5CC6CCC(C5)N6)nc(OCC56CCCN5CC(F)C6)nc4c3F)c12 (stereo unspecified) + CC(Nc1ncnc2nc[nH]c12)c1cc2cccc(Cl)c2c(=O)n1-c1ccccc1 : viability, T/C was 73.7
